target: UniProtKB Q12809; test: hERG electrophysiology, automated whole-cell patch clamp (Patchliner)
Sequence (Q12809 whole entry): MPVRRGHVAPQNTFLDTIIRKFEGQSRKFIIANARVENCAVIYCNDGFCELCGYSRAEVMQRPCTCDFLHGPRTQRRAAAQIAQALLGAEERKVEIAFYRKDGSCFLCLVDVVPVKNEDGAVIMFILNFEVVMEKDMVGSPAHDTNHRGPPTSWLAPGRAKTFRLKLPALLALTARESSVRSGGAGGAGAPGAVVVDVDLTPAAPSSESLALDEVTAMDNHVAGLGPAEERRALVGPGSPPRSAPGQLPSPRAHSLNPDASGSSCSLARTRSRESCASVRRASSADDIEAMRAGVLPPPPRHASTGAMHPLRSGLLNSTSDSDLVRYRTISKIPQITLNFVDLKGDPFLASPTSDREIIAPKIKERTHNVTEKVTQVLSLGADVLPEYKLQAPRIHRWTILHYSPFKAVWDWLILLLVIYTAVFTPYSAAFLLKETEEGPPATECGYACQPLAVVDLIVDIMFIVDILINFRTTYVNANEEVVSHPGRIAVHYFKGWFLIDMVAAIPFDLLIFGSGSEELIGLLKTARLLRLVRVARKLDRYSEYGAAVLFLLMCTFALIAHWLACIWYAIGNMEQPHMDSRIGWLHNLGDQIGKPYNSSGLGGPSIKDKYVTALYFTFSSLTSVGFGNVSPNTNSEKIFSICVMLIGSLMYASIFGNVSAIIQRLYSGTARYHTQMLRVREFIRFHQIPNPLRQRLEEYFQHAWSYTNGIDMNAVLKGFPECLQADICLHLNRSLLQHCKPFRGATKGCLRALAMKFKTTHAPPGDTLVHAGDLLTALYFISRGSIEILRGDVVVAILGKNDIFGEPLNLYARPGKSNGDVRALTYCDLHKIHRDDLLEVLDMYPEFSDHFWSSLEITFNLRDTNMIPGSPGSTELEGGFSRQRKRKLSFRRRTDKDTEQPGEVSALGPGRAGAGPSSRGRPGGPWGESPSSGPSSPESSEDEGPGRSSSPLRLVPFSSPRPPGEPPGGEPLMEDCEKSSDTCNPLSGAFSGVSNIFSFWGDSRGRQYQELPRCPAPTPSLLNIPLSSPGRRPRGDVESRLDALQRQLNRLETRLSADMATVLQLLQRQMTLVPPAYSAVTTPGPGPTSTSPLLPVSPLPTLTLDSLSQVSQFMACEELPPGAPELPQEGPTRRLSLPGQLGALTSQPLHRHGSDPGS
IC50 listing for selected molecules.
property name: IC50

COC[C@@H](O)C(=O)N1CCC([C@@H](N)c2cc(Cl)c(Cl)cc2O)CC1 = > 30 µM
Cc1n[nH]c(C)c1C(=O)N1CCC([C@@H](N)c2cc(Cl)c(Cl)cc2O)CC1 = > 30 µM
N[C@@H](c1cc(Cl)c(Cl)cc1O)C1CCN(C(=O)C2CC(F)(F)C2)CC1 = < 30 µM
Nc1ccnc(N2CCC([C@@H](N)c3cc(Cl)c(Cl)cc3O)CC2)c1 = < 30 µM
